All values here come from paper PMC11005391.

molecular target: the molecule itself; test: SEC; as a1, but the more diluted sample of mutants with dilution-dependent behaviour (footnote b of Table 1; broken lines in Fig. 5 and Fig. S9)
measurement.kind: stoichiometry N

INSERT INTO measurements (protein, obs_value) VALUES
  ('PaUGP R57K (enzyme, UDP-glucose pyrophosphorylase of Pseudomonas aeruginosa (galU), residues 1-279, point mutant of Strep-PaUGP; Same construct as m1; source: E. coli BL21(DE3), purified (Strep-Tactin Sepharose); not shown: Strep-tagII, N-terminal, kept) MIKKCLFPAAGYGTRFLPATKAMPKEMLPVVNKPLIQYAVEEALEAGLSEIGIVTGKGKRSLEDHFDISYELEHQIRNTDKEKYLVGIRRLIDECTFAYTRQVEMKGLGHAILTGRPLIGDEPFAVVLADDLCLNLEGDSVLKQMVKLYNQFRCSIVAIQEVPPEETNKYGVIAGEMIRDDIFRVNTMVEKPKPEEAPSNLAIIGRYILTPDIFDLIEQTEPGKGGEIQITDALMKQAQDGCVLAYKFKGKRFDCGSAEGYIEATNFCYENLYKTGKAH', 3.2);
